Target: hOTC (human ornithine transcarbamylase) (Homo sapiens, UniProt P00480)
Sequence (P00480 33-354): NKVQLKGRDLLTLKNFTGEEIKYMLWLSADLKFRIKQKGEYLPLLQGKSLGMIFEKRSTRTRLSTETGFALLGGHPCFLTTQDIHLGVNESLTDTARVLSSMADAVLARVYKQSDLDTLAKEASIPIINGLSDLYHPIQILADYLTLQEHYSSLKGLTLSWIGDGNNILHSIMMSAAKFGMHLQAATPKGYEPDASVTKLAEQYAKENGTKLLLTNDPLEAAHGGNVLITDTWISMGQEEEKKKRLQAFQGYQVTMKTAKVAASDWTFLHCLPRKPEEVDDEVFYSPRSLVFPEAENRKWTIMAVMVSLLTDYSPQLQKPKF
Experiment: microscale thermophoresis, label-free
Format: binding
MEASURE: pKd
Value format note: pKd is -log10 of concentration (mol/L); just state the number.

// query Output pKd of NC(=O)OP(=O)(O)O [CP, carbamoyl phosphate]
// result 6.64

Value source: paper PMC11256359
